# System: Plasmodium falciparum D6 strain (chloroquine sensitive)
# protocol-text: Antiplasmodial fluorescence-based SyBr Green assay, D6 strain
# Type: cell-based
# reported-conditions: Plasmodium falciparum, D6, 72 h; read-out: Antiplasmodial IC50, D6 strain
List of IC50 values.
Reply with just the number (in nM).

The following compounds have reported results that may help.
O=C1C(O)=C([C@H]2CC[C@H](c3ccc(Cl)cc3)CC2)C(=O)c2ccccc21 [Atovaquone, reference compound] ... 0.1
CCN(CC)CCCNc1c(C)cnc2cc(Cl)ccc12 ... 12.8
CCN(CC)CCNc1c(C)cnc2cc(Cl)ccc12 ... 14.1

Entry `Clc1ccc2c(NCCCNC34CC5CC(CC(C5)C3)C4)ccnc2c1` , IC50 reported as 3.8
